Assay: NF-kB promoter reporter activators, neuronal cells, dose response, cell-based, SH-SY5Y, luciferase (AID 1241)
Conditions: fold induction
Endpoint: EC50

As a guide, the following entries are already answered.
{"Compound": "O=C(Oc1c(CN2CCOCC2)cc(Cl)c2cccnc12)c1ccc(F)cc1", "Endpoint": "EC50", "Meas Value": "13100 nM"}
{"Compound": "CC(=O)Nc1ccc2oc(-c3ccccc3Br)nc2c1", "Endpoint": "EC50", "Meas Value": "1060 nM"}
{"Compound": "c1ccc(COc2ccc(OCCCn3cncn3)cc2)cc1", "Endpoint": "EC50", "Meas Value": "19800 nM"}

[in] Need EC50 of O=C(N=Nc1c(O)[nH]c2ccccc12)c1cccs1 , thanks.
[out] 1480 nM

[in] Sample Clc1ccc(Nc2nc(-c3cccs3)cs2)nc1 — what was its EC50?
[out] 686 nM

[in] Fill blank: measured EC50 of the compound c1ccc(CCNc2ncnc3c2cnn3-c2ccccc2)cc1 is ____.
[out] 27400 nM
